Data origin: ChEMBL document CHEMBL1139366

# SUBJECT_OF_TEST: Protein deacetylase HDAC6 (Homo sapiens)
# Sequence (Q9UBN7 whole entry): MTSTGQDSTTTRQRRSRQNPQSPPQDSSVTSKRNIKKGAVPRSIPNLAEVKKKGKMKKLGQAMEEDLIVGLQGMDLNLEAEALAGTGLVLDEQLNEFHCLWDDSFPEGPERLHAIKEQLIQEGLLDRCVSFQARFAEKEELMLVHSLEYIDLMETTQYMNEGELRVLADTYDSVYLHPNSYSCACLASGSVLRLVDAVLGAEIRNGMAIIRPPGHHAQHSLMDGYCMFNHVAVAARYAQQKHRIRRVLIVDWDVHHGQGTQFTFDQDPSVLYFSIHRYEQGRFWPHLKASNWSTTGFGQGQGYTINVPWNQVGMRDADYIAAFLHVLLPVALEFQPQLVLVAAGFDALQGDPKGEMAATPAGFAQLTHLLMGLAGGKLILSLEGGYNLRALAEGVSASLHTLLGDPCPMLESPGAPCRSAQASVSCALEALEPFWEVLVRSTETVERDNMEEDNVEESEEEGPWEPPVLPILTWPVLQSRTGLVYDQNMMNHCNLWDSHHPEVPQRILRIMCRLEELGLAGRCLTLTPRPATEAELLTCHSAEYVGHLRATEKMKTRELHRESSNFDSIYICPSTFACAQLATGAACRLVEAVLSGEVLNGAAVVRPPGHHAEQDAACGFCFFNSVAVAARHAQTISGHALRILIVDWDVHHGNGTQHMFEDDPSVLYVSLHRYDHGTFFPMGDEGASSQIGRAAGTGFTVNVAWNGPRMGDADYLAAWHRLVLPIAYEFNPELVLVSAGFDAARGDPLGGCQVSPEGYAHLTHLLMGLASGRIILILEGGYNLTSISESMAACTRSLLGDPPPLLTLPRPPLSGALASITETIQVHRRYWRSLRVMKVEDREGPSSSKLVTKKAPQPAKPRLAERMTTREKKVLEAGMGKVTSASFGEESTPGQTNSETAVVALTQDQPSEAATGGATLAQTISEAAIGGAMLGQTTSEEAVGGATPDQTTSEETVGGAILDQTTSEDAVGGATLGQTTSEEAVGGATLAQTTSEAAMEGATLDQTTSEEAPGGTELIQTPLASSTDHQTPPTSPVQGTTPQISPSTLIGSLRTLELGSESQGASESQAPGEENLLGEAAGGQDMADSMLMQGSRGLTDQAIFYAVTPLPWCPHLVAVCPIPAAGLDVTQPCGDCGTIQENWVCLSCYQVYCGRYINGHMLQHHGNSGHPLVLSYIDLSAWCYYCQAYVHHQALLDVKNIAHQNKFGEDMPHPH
# PROCEDURE_TEXT: Inhibition of HDAC6 from human HeLa cells nuclear extract by cell free fluorimetric assay
pIC50: −log10 of the molar value.

MOLECULE_SMILES: CC[C@H]1OC(=O)[C@H](C)[C@@H](O[C@H]2C[C@@](C)(OC)[C@@H](O)[C@H](C)O2)[C@H](C)[C@@H](O[C@@H]2O[C@H](C)C[C@H](N(C)Cc3ccc(-c4cn(CCCCCCC(=O)NO)nn4)cc3)[C@H]2O)[C@](C)(OC)C[C@@H](C)C(=O)[C@H](C)[C@@H](O)[C@]1(C)O
pIC50: 7.05
//
MOLECULE_SMILES: CC[C@H]1OC(=O)[C@H](C)[C@@H](O[C@H]2C[C@@](C)(OC)[C@@H](O)[C@H](C)O2)[C@H](C)[C@@H](O[C@@H]2O[C@H](C)C[C@H](N(C)Cc3ccc(-c4cn(CCCCCCC(=O)NO)nn4)cc3)[C@H]2O)[C@](C)(O)C[C@@H](C)CN(C)[C@H](C)[C@@H](O)[C@]1(C)O
pIC50: 7.11
//
MOLECULE_SMILES: CC[C@H]1OC(=O)[C@H](C)[C@@H](O)[C@H](C)[C@@H](O[C@@H]2O[C@H](C)C[C@H](N(C)Cc3ccc(-c4cn(CCCCCCC(=O)NO)nn4)cc3)[C@H]2O)[C@](C)(O)C[C@@H](C)CN(C)[C@H](C)[C@@H](O)[C@]1(C)O
pIC50: 6.93
//
MOLECULE_SMILES: CC[C@H]1OC(=O)[C@H](C)[C@@H](O)[C@H](C)[C@@H](O[C@@H]2O[C@H](C)C[C@H](N(C)Cc3ccc(-c4cn(CCCCCCC(=O)NO)nn4)cc3)[C@H]2O)[C@](C)(OC)C[C@@H](C)C(=O)[C@H](C)[C@@H](O)[C@]1(C)O
pIC50: 6.83

###

# Tested on: SK-MES-1
# PROCEDURE_TEXT: Cytotoxicity against human SKMES1 cells after 72 hrs by trypan blue exclusion assay
# Type: functional, cell-based
# CONDITIONS_USED: SK-MES-1, 72 h
Consider the cut-off 2000 nM. If the recorded EC50 is strictly smaller, the label is 1.0; if not, the label is 0.0.

MOLECULE_SMILES: CC[C@H]1OC(=O)[C@H](C)[C@@H](O)[C@H](C)[C@@H](O[C@@H]2O[C@H](C)C[C@H](N(C)Cc3ccc(-c4cn(CCCCCCC(=O)NO)nn4)cc3)[C@H]2O)[C@](C)(O)C[C@@H](C)CN(C)[C@H](C)[C@@H](O)[C@]1(C)O
SUBJECT_OF_TEST: SK-MES-1
CLASS: 0.0
//
MOLECULE_SMILES: CC[C@H]1OC(=O)[C@H](C)[C@@H](O)[C@H](C)[C@@H](O[C@@H]2O[C@H](C)C[C@H](N(C)Cc3ccc(-c4cn(CCCCCCC(=O)NO)nn4)cc3)[C@H]2O)[C@](C)(OC)C[C@@H](C)C(=O)[C@H](C)[C@@H](O)[C@]1(C)O
SUBJECT_OF_TEST: SK-MES-1
CLASS: 1.0
//
MOLECULE_SMILES: CC[C@H]1OC(=O)[C@H](C)[C@@H](O[C@H]2C[C@@](C)(OC)[C@@H](O)[C@H](C)O2)[C@H](C)[C@@H](O[C@@H]2O[C@H](C)C[C@H](N(C)Cc3ccc(-c4cn(CCCCCCC(=O)NO)nn4)cc3)[C@H]2O)[C@](C)(O)C[C@@H](C)CN(C)[C@H](C)[C@@H](O)[C@]1(C)O
SUBJECT_OF_TEST: SK-MES-1
CLASS: 0.0
//
MOLECULE_SMILES: CC[C@H]1OC(=O)[C@H](C)[C@@H](O[C@H]2C[C@@](C)(OC)[C@@H](O)[C@H](C)O2)[C@H](C)[C@@H](O[C@@H]2O[C@H](C)C[C@H](N(C)Cc3ccc(-c4cn(CCCCCC(=O)NO)nn4)cc3)[C@H]2O)[C@](C)(OC)C[C@@H](C)C(=O)[C@H](C)[C@@H](O)[C@]1(C)O
SUBJECT_OF_TEST: SK-MES-1
CLASS: 0.0
//
MOLECULE_SMILES: CC[C@H]1OC(=O)[C@H](C)[C@@H](O[C@H]2C[C@@](C)(OC)[C@@H](O)[C@H](C)O2)[C@H](C)[C@@H](O[C@@H]2O[C@H](C)C[C@H](N(C)Cc3ccc(-c4cn(CCCCCCCCC(=O)NO)nn4)cc3)[C@H]2O)[C@](C)(OC)C[C@@H](C)C(=O)[C@H](C)[C@@H](O)[C@]1(C)O
SUBJECT_OF_TEST: SK-MES-1
CLASS: 0.0
